target: Pancreatic Elastase (porcine) (Sus scrofa)
Construct: purchased Elastin Products Company, Inc
Sequence (P00772 27-266): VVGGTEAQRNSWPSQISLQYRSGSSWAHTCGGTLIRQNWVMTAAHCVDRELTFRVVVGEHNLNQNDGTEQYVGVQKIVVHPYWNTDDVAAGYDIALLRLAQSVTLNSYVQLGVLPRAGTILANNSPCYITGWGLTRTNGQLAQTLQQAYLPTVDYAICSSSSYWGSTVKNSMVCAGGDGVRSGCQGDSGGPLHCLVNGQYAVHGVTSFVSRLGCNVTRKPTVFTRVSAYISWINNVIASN
assay.summary: Enzyme inhibition assay, pancreatic elastase, release of p-nitroaniline from Ac-Ala-Ala-Pro-Ala-pNA
Type: biochemical
condition: 500 ng enzyme/assay
In this section, each of the substances is paired with its reported amount of inhibitor giving 50% inhibition, Pancreatic Elastase (porcine).
Give the number; ng is assumed, so skip it.

Q) Please indicate amount of inhibitor giving 50% inhibition, Pancreatic Elastase (porcine) recorded for Leu^18 -Glu^19 -Arg^21 -Ala^32 -PSTI (DSLGREAKCYNELNGCTLEYRPVCGTDGNTYANECVLCFENRKRQTSILIQKSGPC; UniProt P00995 24-79, looked up, variant K18L I19E D21R P32A) [PSTI-4A, PSTI variant obtained from the minifusion protein by BrCN-cleavage]
A) 75

Q) Please indicate amount of inhibitor giving 50% inhibition, Pancreatic Elastase (porcine) recorded for Val^18 -Glu^19 -Arg^21 -PSTI (DSLGREAKCYNELNGCTVEYRPVCGTDGNTYPNECVLCFENRKRQTSILIQKSGPC; UniProt P00995 24-79, looked up, variant K18V I19E D21R) [PSTI-5P]
A) 70

Q) Please indicate amount of inhibitor giving 50% inhibition, Pancreatic Elastase (porcine) recorded for Leu^18 -Ala^32 -PSTI (DSLGREAKCYNELNGCTLIYDPVCGTDGNTYANECVLCFENRKRQTSILIQKSGPC; UniProt P00995 24-79, looked up, variant K18L P32A) [PSTI-1A, PSTI variant from cyanogen bromide cleavage of the PSTI-1A minifusion protein]
A) 1200

----------
target: α-Chymotrypsin (bovine) (Bos taurus, UniProt P00766)
Construct: purchased E. Merck, Darmstadt
assay.summary: Enzyme inhibition assay, α-chymotrypsin, release of p-nitroaniline from Suc-Ala-Ala-Pro-Phe-pNA
Type: biochemical
condition: 50 ng enzyme/assay
reported.endpoint: amount of inhibitor giving 50% inhibition, α-Chymotrypsin (bovine) (ng)

Study these solved cases before continuing.
# substance, result.number
rows = [
    ("Leu^18 -Glu^19 -Arg^21 -Ala^32 -PSTI (DSLGREAKCYNELNGCTLEYRPVCGTDGNTYANECVLCFENRKRQTSILIQKSGPC; UniProt P00995 24-79, looked up, variant K18L I19E D21R P32A) [PSTI-4A, PSTI variant obtained from the minifusion protein by BrCN-cleavage]", 7),
    ("Leu^18 -Ala^32 -PSTI (DSLGREAKCYNELNGCTLIYDPVCGTDGNTYANECVLCFENRKRQTSILIQKSGPC; UniProt P00995 24-79, looked up, variant K18L P32A) [PSTI-1A, PSTI variant from cyanogen bromide cleavage of the PSTI-1A minifusion protein]", 100),
    ("Asn^-13 -Ala^-12 -Glu^-11 -Thr^-10 -Ala^-9 -His^-8 -Lys^-7 -Ser^-6 -Asn^-5 -Glu^-4 -Val^-3 -Thr^-2 -Met^-1 -Leu^18 -Glu^19 -Arg^21 -Ala^32 -PSTI ({Asn-Ala-Glu-Thr-Ala-H2N}-KSNEVTMDSLGREAKCYNELNGCTLEYRPVCGTDGNTYANECVLCFENRKRQTSILIQKSGPC; ends and bridges not checked; UniProt P00995 24-79, looked up, variant K18L I19E D21R P32A) [PSTI-4A [Minifusion]]", 6),
    ("Tyr^18 -Glu^19 -Arg^21 -PSTI (DSLGREAKCYNELNGCTYEYRPVCGTDGNTYPNECVLCFENRKRQTSILIQKSGPC; UniProt P00995 24-79, looked up, variant K18Y I19E D21R) [PSTI-3P]", 7),
]

a: Met^-1 -Leu^18 -Glu^19 -Arg^21 -Ala^32 -PSTI (DSLGREAKCYNELNGCTLEYRPVCGTDGNTYANECVLCFENRKRQTSILIQKSGPC; N-terminal Met; UniProt P00995 24-79, looked up, variant K18L I19E D21R P32A) [Met-PSTI-4A]
b: Val^18 -Glu^19 -Arg^21 -PSTI (DSLGREAKCYNELNGCTVEYRPVCGTDGNTYPNECVLCFENRKRQTSILIQKSGPC; UniProt P00995 24-79, looked up, variant K18V I19E D21R) [PSTI-5P]
Q) Consider entries a and b . Which has the numerically lower amount of inhibitor giving 50% inhibition, α-Chymotrypsin (bovine)? When you have decided, please share the label of that item.
A) a
